These data points were gathered from patent US5593966A.

Reported Mean inhibition vs. buffer control (n), Cell-free assay values follow for various molecules
Target: NADPH oxidase (Homo sapiens, UniProt P14598)
Construct: Neutrophils were electropermeabilized as described; endogenous in cells; host or cells: electropermeabilized peripheral blood neutrophils (PMN), stimulated with PMA or fMLP
Sequence (P14598 whole entry): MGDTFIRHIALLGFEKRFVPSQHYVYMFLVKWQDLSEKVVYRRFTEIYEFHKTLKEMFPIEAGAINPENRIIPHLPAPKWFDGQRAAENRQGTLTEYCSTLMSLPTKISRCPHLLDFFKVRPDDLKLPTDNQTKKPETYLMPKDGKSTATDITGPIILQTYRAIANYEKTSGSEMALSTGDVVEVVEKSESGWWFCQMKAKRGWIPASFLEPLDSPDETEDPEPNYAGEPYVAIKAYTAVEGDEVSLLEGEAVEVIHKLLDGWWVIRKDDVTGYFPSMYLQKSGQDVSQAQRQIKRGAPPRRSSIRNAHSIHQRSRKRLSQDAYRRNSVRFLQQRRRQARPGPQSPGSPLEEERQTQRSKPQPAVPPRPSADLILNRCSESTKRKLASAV
Experiment: Cell-free NADPH oxidase assay (arachidonate-stimulated O2 generation, neutrophil membrane plus cytosol)
Format: biochemical
Conditions: 100 μM synthetic peptide; arachidonate-stimulated O2 production; mean of n experiments in duplicate
Where a SMILES comes first, the peptide text is derived from it.
Give the value in % but do not write % after it.

NC(N)=NCCC[C@H](NC(=O)[C@H](Cc1ccccc1)NC(=O)[C@@H]1CCCN1C(=O)[C@H](CO)NC(=O)[C@H](Cc1ccccc1)NC(=O)CNC(=O)[C@@H]1CCCN1C(=O)[C@@H]1CCCN1C(=O)[C@@H](N)CCCN=C(N)N)C(=O)O [Bradykinin] (H-RPPGFSPFR-OH) = -8

Given the molecule CC[C@H](C)[C@H](NC(=O)[C@H](Cc1ccccc1)NC(=O)[C@H](Cc1c[nH]cn1)NC(=O)[C@@H](NC(=O)CNC(=O)[C@@H](N)CCCNC(=N)N)C(C)C)C(=O)N[C@@H](Cc1ccccc1)C(=O)O [RGVHFIF, Arg--Gly--Val--His--Phe--Ile--Phe] (H-RGVHFIF-OH) and test system NADPH oxidase (Homo sapiens, UniProt P14598), the measured Mean inhibition vs. buffer control (n), Cell-free assay is 97

Given the molecule CC(C)[C@H](NC(=O)[C@H](C)NC(=O)[C@H](Cc1c[nH]c2ccccc12)NC(=O)[C@H](CC(N)=O)NC(=O)CN)C(=O)N[C@@H](CC(N)=O)C(=O)N[C@@H](CCC(=O)O)C(=O)NCC(=O)N[C@@H](CS)C(=O)O [GNWAVNEGC] (H-GNWAVNEGC-OH) and test system NADPH oxidase (Homo sapiens, UniProt P14598), the measured Mean inhibition vs. buffer control (n), Cell-free assay is -17

Given the molecule NC(=O)C[C@H](NC(=O)[C@@H](N)CO)C(=O)N[C@@H](CO)C(=O)N[C@@H](CCC(=O)O)C(=O)N[C@@H](CO)C(=O)NCC(=O)N1CCC[C@H]1C(=O)O [SNSESGP] (H-SNSESGP-OH) and test system NADPH oxidase (Homo sapiens, UniProt P14598), the measured Mean inhibition vs. buffer control (n), Cell-free assay is -8
